What Pre-emergence efficacy against ZEAMX in % was measured for each of the following?
# Tested on: Zea mays (ZEAMX)
# MEASUREMENT PROTOCOL: D. Pre-emergence effect on useful plants, ZEAMX
# Type: in vivo
# CONDITION DESCRIPTION: useful plant, application rate 320 g/ha
Numbers only, in %.

compound="O=S(=O)(CCl)Oc1ccccc1Oc1ncc(Cl)cn1 [Example I-9]" value_reported=20
compound="N#Cc1cccc(Oc2ncc(Cl)cn2)c1OS(=O)(=O)CC1CC1(Cl)Cl (stereo not drawn) [Example I-78]" value_reported=20
compound="Cc1cccc(Oc2ncc(F)cn2)c1OS(=O)(=O)CCC(F)(F)F [Example I-45]" value_reported=20
compound="Cc1cccc(Oc2ncc(Cl)cn2)c1OS(=O)(=O)CC=C(Cl)Cl [Example I-83]" value_reported=0
compound="O=S(=O)(CCCCl)Oc1cccc(F)c1Oc1ncc(Cl)cn1 [Example I-13]" value_reported=20

Incoming: Would you mind telling me what Pre-emergence efficacy against ZEAMX in % value was observed for CCCCCS(=O)(=O)Oc1ccccc1Oc1ncc(Cl)cn1 [Example I-24] ?
Outgoing: 0

// provenance: patent US20240174618A1
